Provide the recorded Dmax for the entries that follow.
molecular target: B-RAF V600E (Homo sapiens, UniProt P15056, V600E); construct: expressed in transfected cells; host or cells: T-Rex 293 cells (Invitrogen #R71007); test: Target protein degradation, assay C: T-Rex 293 cells, HA-BRAF_V600E, 384 well format; format: cell-based; conditions: T-REx-293, Assay C, T-Rex 293 HA-BRAF_V600E cells, 24 hours, Examples 83-269
Sequence (P15056 whole entry V600E): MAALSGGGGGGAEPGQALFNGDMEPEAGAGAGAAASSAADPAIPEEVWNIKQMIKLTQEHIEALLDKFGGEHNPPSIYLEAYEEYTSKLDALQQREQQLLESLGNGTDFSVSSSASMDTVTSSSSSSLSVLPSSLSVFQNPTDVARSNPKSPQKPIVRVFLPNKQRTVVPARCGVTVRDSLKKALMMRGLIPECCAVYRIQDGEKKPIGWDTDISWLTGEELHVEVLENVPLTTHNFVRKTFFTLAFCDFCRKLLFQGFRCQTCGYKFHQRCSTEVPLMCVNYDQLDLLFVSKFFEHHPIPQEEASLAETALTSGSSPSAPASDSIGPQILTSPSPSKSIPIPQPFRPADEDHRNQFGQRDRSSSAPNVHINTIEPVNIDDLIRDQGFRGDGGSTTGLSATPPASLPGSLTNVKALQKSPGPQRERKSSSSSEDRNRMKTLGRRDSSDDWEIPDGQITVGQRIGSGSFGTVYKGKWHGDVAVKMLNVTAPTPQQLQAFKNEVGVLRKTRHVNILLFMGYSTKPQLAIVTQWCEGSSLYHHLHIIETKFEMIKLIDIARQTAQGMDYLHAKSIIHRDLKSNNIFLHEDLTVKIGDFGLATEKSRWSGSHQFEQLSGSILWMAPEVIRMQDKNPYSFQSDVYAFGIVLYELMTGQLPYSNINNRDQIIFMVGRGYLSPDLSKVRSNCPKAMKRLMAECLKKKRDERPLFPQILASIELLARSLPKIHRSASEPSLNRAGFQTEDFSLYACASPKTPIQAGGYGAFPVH

# input Look up Dmax for this molecule: "N#Cc1c(NS(=O)(=O)N2CC[C@@H](F)C2)ccc(F)c1Oc1ccc2ncn(-c3ccc(N4CCN(CC5CCN(c6ccc7c(c6F)CN([C@H]6CCC(=O)NC6=O)C7=O)CC5)CC4)cn3)c(=O)c2c1"
# output ≤ 35%

# input Look up Dmax for this molecule: N#Cc1c(NS(=O)(=O)N2CC[C@@H](F)C2)ccc(F)c1Oc1ccc2ncn(-c3cnc(N4CCC(CN5CC6(C5)CN(c5cccc7c5C(=O)N(C5CCC(=O)NC5=O)C7=O)C6)CC4)nc3)c(=O)c2c1 (stereo partly shown)
# output 35 to 70%

# input Look up Dmax for this molecule: "N#Cc1c(NS(=O)(=O)N2CC[C@@H](F)C2)ccc(F)c1Oc1ccc2ncn(-c3ccn(C4CCN(CC5CCN(c6ccc7c(c6)CN([C@H]6CCC(=O)NC6=O)C7=O)CC5)CC4)n3)c(=O)c2c1"
# output ≥ 70%

# input Look up Dmax for this molecule: "N#Cc1c(NS(=O)(=O)N2CC[C@@H](F)C2)ccc(F)c1Oc1ccc2ncn(-c3ccc(N4CCC5(CC4)CC(OC4CCN(c6ccc7c(c6)CN([C@H]6CCC(=O)NC6=O)C7=O)CC4)C5)cc3)c(=O)c2c1"
# output 35 to 70%

# input Look up Dmax for this molecule: N#Cc1c(NS(=O)(=O)N2CC[C@@H](F)C2)ccc(F)c1Oc1ccc2ncn(-c3cnc(N4CCN(CCN5CCN(c6ccc7c(c6)CN(C6CCC(=O)NC6=O)C7=O)CC5)CC4)nc3)c(=O)c2c1 (stereo partly shown)
# output 35 to 70%

# input Look up Dmax for this molecule: N#Cc1c(NS(=O)(=O)N2CC[C@@H](F)C2)ccc(F)c1Oc1ccc2ncn(-c3cnc(C4(N5CCN(CC6CCN(c7ccc(NC8CCC(=O)NC8=O)cc7F)CC6)CC5)CC4)nc3)c(=O)c2c1 (stereo partly shown)
# output 35 to 70%

# input Look up Dmax for this molecule: "N#Cc1c(NS(=O)(=O)N2CC[C@@H](F)C2)ccc(F)c1Oc1ccc2ncn(-c3cccc(N4CCN(CC5CN(c6ccc7c(c6)CN([C@H]6CCC(=O)NC6=O)C7=O)C5)CC4)c3)c(=O)c2c1"
# output 35 to 70%

----------
target: B-RAF V600E (Homo sapiens, UniProt P15056, V600E); construct: expressed in transfected cells; host or cells: T-Rex 293 cells (Invitrogen #R71007); test: Target protein degradation, assay C: T-Rex 293 cells, HA-BRAF_V600E, 384 well format; format: cell-based; details: Assay C, T-Rex 293 HA-BRAF_V600E cells, 24 hours, Examples 83-269
Provide the recorded DC50 for the entries that follow.

# input State its DC50 on B-RAF V600E (Homo sapiens, UniProt P15056, V600E): C[C@H]1CC(CN2CCC(c3ccc4c(c3)CN(C3CCC(=O)NC3=O)C4=O)CC2)CCN1c1ccc(-n2cnc3ccc(Oc4c(F)ccc(NS(=O)(=O)N5CC[C@@H](F)C5)c4C#N)cc3c2=O)cc1 (stereo partly shown)
# output 50 to 500 nM

# input State its DC50 on B-RAF V600E (Homo sapiens, UniProt P15056, V600E): N#Cc1c(NS(=O)(=O)N2CC[C@@H](F)C2)ccc(F)c1Oc1ccc2ncn(-c3ccc(N4CCN(CC5CCN(c6ccc(C7CCC(=O)NC7=O)cc6F)CC5)CC4)cc3)c(=O)c2c1 (single isomer, unassigned)
# output 5 to 50 nM

# input State its DC50 on B-RAF V600E (Homo sapiens, UniProt P15056, V600E): "N#Cc1c(NS(=O)(=O)N2CC[C@@H](F)C2)ccc(F)c1Oc1ccc2ncn(-c3ccc(N4CCC(CN5CC(c6ccc([C@H]7CCC(=O)NC7=O)cc6F)C5)CC4)cc3)c(=O)c2c1"
# output 50 to 500 nM

# input State its DC50 on B-RAF V600E (Homo sapiens, UniProt P15056, V600E): "N#Cc1c(NS(=O)(=O)N2CC[C@@H](F)C2)ccc(F)c1Oc1ccc2ncn(-c3cccc(C4CCN(CC5CN(c6ccc7c(c6)CN([C@H]6CCC(=O)NC6=O)C7=O)C5)CC4)c3)c(=O)c2c1"
# output 50 to 500 nM

# input State its DC50 on B-RAF V600E (Homo sapiens, UniProt P15056, V600E): Cc1c(NS(=O)(=O)N2CC[C@@H](F)C2)ccc(F)c1Oc1ccc2ncn(-c3ccc(N4CCN(CC5CCN(c6ccc7c(c6)CN(C6CCC(=O)NC6=O)C7=O)CC5)CC4)cc3)c(=O)c2c1 (stereo partly shown)
# output 50 to 500 nM

# input State its DC50 on B-RAF V600E (Homo sapiens, UniProt P15056, V600E): N#Cc1c(NS(=O)(=O)N2CC[C@@H](F)C2)ccc(F)c1Oc1ccc2ncn(-c3ccc(N4CCC(CC5CCCN5c5ccc6c(c5)C(=O)N(C5CCC(=O)NC5=O)C6=O)CC4)nc3)c(=O)c2c1 (stereo partly shown)
# output 50 to 500 nM

# input State its DC50 on B-RAF V600E (Homo sapiens, UniProt P15056, V600E): N#Cc1c(NS(=O)(=O)N2CC[C@@H](F)C2)ccc(F)c1Oc1ccc2ncn(-c3ccc(N4CCC(CN5CCC(Oc6ccc7c(c6)C(=O)N(C6CCC(=O)NC6=O)C7=O)CC5)CC4)nc3)c(=O)c2c1 (stereo partly shown)
# output 5 to 50 nM
